Items are presented alongside their recorded 24 hr Dox Inducible IL2FLGluc 293FRT/TO: IL2/PD1.
- Test system: IL-2-FL/Gaussia Luciferase
- Experiment Description: Dox Induced IL2-FL-Gluc Assay
- Assay type: cell-based
- Particulars: ratio of IL2FLGluc IC50 to PD1ssGluc IC50

1. CC(C)c1ccc(/C=C/c2csc(NC(=O)c3cccn3Cc3cccnc3)n2)nc1 [Compound B66] ... >1.6

The record that follows has no 24 hr Dox Inducible IL2FLGluc 293FRT/TO: IL2/PD1 shown yet.
Input line: # lookup: 24 hr Dox Inducible IL2FLGluc 293FRT/TO: IL2/PD1 of CC(C)n1ccnc1/C=C/c1csc(NC(=O)c2cccn2Cc2ccnc(F)c2)n1 [Compound B95]
Output line: >32

Reference source: patent US20230286973A1
